Cited source: ChEMBL document CHEMBL3822409

# assay-overview: Selectivity index, ratio of CC50 for human HCT116 cells to MIC for active stage of Mycobacterium bovis BCG ATCC 35734
# Format: toxicity, cell-based, HCT-116
# condition-details: read-out: Selectivity Index
selectivity ratio by entry:

- smiles-structure: "Cc1nc(-c2cccnc2)sc1-c1nnc(-c2ccc(O)cc2)o1"
  selectivity ratio: 3
- smiles-structure: "Cc1nc(-c2cccnc2)sc1-c1nnc(-c2ccc(Cl)cc2)o1"
  selectivity ratio: 3
- smiles-structure: "Cc1nc(-c2cccnc2)sc1-c1nnc(-c2cccc(Cl)c2Cl)o1"
  selectivity ratio: 3
- smiles-structure: "Cc1ccc(-c2nnc(-c3sc(-c4cccnc4)nc3C)o2)cc1"
  selectivity ratio: 3
- smiles-structure: "Cc1nc(-c2cccnc2)sc1-c1nnc(-c2ccccc2Cl)o1"
  selectivity ratio: 19
- smiles-structure: "Cc1nc(-c2cccnc2)sc1-c1nnc(Cc2ccccc2)o1"
  selectivity ratio: 9
- smiles-structure: "Cc1nc(-c2cccnc2)sc1-c1nnc(-c2cccnc2)o1"
  selectivity ratio: 2
